- method notes: Back-fire test of aerosol sprayers loaded with various gases (Test Example 1)
- assay context: sprayed 5 seconds towards burner flame, sprayer at 25° C., 60 cm
recorded metric: Backfire, 60 cm distant from Fire Origin

compound	recorded metric	experimental value
FCC(F)(F)F [HFC-134a (100%)]	Backfire, 60 cm distant from Fire Origin	Not Backfired
FC=CC(F)(F)F [HFO-1234ze (100%), 1,3,3,3-tetrafluoropropene]	Backfire, 60 cm distant from Fire Origin	Not Backfired
CC(F)F [HFC-152a (100%), 1,1-difluoroethane]	Backfire, 60 cm distant from Fire Origin	Not Backfired

* * *

- method notes: Back-fire test of aerosol sprayers loaded with various gases (Test Example 1)
- assay context: sprayed 5 seconds towards burner flame, sprayer at 25° C., 15 cm

compound	Backfire, 15 cm distant from Fire Origin
FCC(F)(F)F [HFC-134a (100%)]	Not Backfired
CC(F)F [HFC-152a (100%), 1,1-difluoroethane]	Not Backfired
FC=CC(F)(F)F [HFO-1234ze (100%), 1,3,3,3-tetrafluoropropene]	Not Backfired
